Experiment: Saturation solubility according to pH change
Type: physicochemical
Conditions: pH 3.0 phosphate buffer solution, pH 3, aqueous buffer, thermodynamic from solid, pH 3.0 phosphate buffer solution, final pH 3.1, room temperature, 12 hours; read-out: Concentration (saturation solubility), Test solution 2
readout: solubility at 12 h (µg/mL)
Record the value in µg/mL, omitting the unit from your answer.

Documented solubility at 12 h of `NC(=O)O[C@@H](Cn1ncnn1)c1ccccc1Cl` : 1860

* * *

Test: Saturation solubility according to pH change
Type: physicochemical
Conditions: pH 6.5 phosphate buffer solution, pH 6.5, aqueous buffer, thermodynamic from solid, pH 6.5 phosphate buffer solution, final pH 6.6, room temperature, 12 hours; read-out: Concentration (saturation solubility), Test solution 2
readout: solubility at 12 h
Note to self: number, then unit, no commentary.

solubility at 12 h recorded for this compound, `NC(=O)O[C@@H](Cn1ncnn1)c1ccccc1Cl` , is 1860 µg/mL

* * *

Experiment: Saturation solubility according to the concentration of cyclodextrin derivative
Type: physicochemical
Conditions: aqueous with cosolvent or surfactant or cyclodextrin, thermodynamic from solid, Cavitron 40 % W/V, water for injection, room temperature, 6 hours
readout: solubility at 6 h (mg/mL)
Enter your answer as a number in mg/mL; do not include the unit.

Value of measured solubility at 6 h for the entry `NC(=O)O[C@@H](Cn1ncnn1)c1ccccc1Cl` : 49.5

* * *

Test: Saturation solubility according to the concentration of cyclodextrin derivative
Format: physicochemical
Conditions: aqueous with cosolvent or surfactant or cyclodextrin, thermodynamic from solid, Cavitron (2-hydroxypropyl-β-cyclodextrin) 5 % W/V, water for injection, room temperature, 6 hours
readout: solubility at 6 h
Reply with a number, then the unit it belongs to.

The molecule listed as `NC(=O)O[C@@H](Cn1ncnn1)c1ccccc1Cl` shows solubility at 6 h equal to 5500 µg/mL

* * *

Experiment: Saturation solubility according to pH change
Type: physicochemical
Details: pH 8.0 phosphate buffer solution, pH 8, aqueous buffer, thermodynamic from solid, pH 8.0 phosphate buffer solution, final pH 8.0, room temperature, 12 hours; read-out: Concentration (saturation solubility), Test solution 1
readout: solubility at 12 h (µg/mL)
Answer in µg/mL, number only, no unit symbol.

The compound listed as `NC(=O)O[C@@H](Cn1ncnn1)c1ccccc1Cl` shows solubility at 12 h equal to 1800

* * *

Assay: Saturation solubility according to pH change
Format: physicochemical
Details: pH 5.0 phosphate buffer solution, pH 5, aqueous buffer, thermodynamic from solid, pH 5.0 phosphate buffer solution, final pH 5.0, room temperature, 12 hours; read-out: Concentration (saturation solubility), Test solution 1
readout: solubility at 12 h (µg/mL)
Answer format: numeric, µg/mL implied, no suffix.

// `NC(=O)O[C@@H](Cn1ncnn1)c1ccccc1Cl` : solubility at 12 h value = 1910

* * *

Assay: Saturation solubility according to pH change
Assay type: physicochemical
Conditions: pH 8.0 phosphate buffer solution, pH 8, aqueous buffer, thermodynamic from solid, pH 8.0 phosphate buffer solution, final pH 8.0, room temperature, 12 hours; read-out: Concentration (saturation solubility), Test solution 2
readout: solubility at 12 h (µg/mL)
Numbers only here, please. The scale is µg/mL.

Lab book: solubility at 12 h of `NC(=O)O[C@@H](Cn1ncnn1)c1ccccc1Cl` noted as 1820

* * *

Experiment: Saturation solubility according to pH change
Assay type: physicochemical
Conditions: pH 3.0 phosphate buffer solution, pH 3, aqueous buffer, thermodynamic from solid, pH 3.0 phosphate buffer solution, final pH 3.1, room temperature, 12 hours; read-out: Concentration (saturation solubility), Test solution 1
readout: solubility at 12 h (µg/mL)
Numbers only here, please. The scale is µg/mL.

solubility at 12 h measured on `NC(=O)O[C@@H](Cn1ncnn1)c1ccccc1Cl` = 1870
